Entry source: patent US11752120B2

# Tested on: clinical Escherichia coli YT1-30
# method_notes: Minimum inhibitory concentration (MIC), NCCLS method, 30 clinical strains
# Assay type: cell-based
# Parameters: unit not given here
# applied_conditions: strain YT24
Counter-ions that a name gives are not always drawn.
result_type: Minimum inhibitory concentration (MIC)

Recorded Minimum inhibitory concentration (MIC), per entry:
>>> observed_value("CCC[C@@H]1C[C@@H](C(=O)N[C@@H]([C@H]2O[C@H](SC)[C@H](O)[C@@H](O)[C@H]2O)[C@H](C)Cl)N(C)C1 [Clindamycin hydrochloride]")
390.625
>>> observed_value("CC(C)(O/N=C(\\C(=O)N[C@@H]1C(=O)N2C(C(=O)[O-])=C(C[n+]3ccccc3)CS[C@H]12)c1csc(N)n1)C(=O)O [Ceftazidime]")
7.812
>>> observed_value("CC[C@H]1OC(=O)[C@H](C)[C@@H](O[C@H]2C[C@@](C)(OC)[C@@H](O)[C@H](C)O2)[C@H](C)[C@@H](O[C@@H]2O[C@H](C)C[C@H](N(C)C)[C@H]2O)[C@](C)(O)C[C@@H](C)/C(=N\\OCOCCOC)[C@H](C)[C@@H](O)[C@]1(C)O [Roxithromycin]")
625

Fill in Minimum inhibitory concentration (MIC) for each of the 2 molecules listed.
1. CN(C)[C@@H]1C(O)=C(C(N)=O)C(=O)[C@@]2(O)C(O)=C3C(=O)c4c(O)cccc4[C@@](C)(O)[C@H]3C[C@@H]12 [Tetracycline]
2. NCC[C@H](O)C(=O)N[C@@H]1C[C@H](N)[C@@H](O[C@H]2O[C@H](CN)[C@@H](O)[C@H](O)[C@H]2O)[C@H](O)[C@H]1O[C@H]1O[C@H](CO)[C@@H](O)[C@H](N)[C@H]1O [Amikacin]

1. 1562.5
2. 9.765

Fill in Minimum inhibitory concentration (MIC) for each of the 2 molecules listed.
1. CNC1CCCN(c2c(F)cc3c(=O)c(C(=O)O)cn(C4CC4)c3c2OC)C1 (stereo not shown) [Balofloxacin]
2. CC1(C)S[C@@H]2[C@H](NC(=O)[C@H](N)c3ccccc3)C(=O)N2[C@H]1C(=O)O [Ampicillin]

15.625
6250

----------
Provide the recorded Minimum inhibitory concentration (MIC) for the entries that follow.
# Test system: clinical Escherichia coli YT1-30
# method_notes: Minimum inhibitory concentration (MIC), NCCLS method, 30 clinical strains
# Format: cell-based
# Set-up: unit not given here
# applied_conditions: strain YT5
Counter-ions that a name gives are not always drawn.

>>> observed_value("CCC[C@@H]1C[C@@H](C(=O)N[C@@H]([C@H]2O[C@H](SC)[C@H](O)[C@@H](O)[C@H]2O)[C@H](C)Cl)N(C)C1 [Clindamycin hydrochloride]")
6250
>>> observed_value("NCC[C@H](O)C(=O)N[C@@H]1C[C@H](N)[C@@H](O[C@H]2O[C@H](CN)[C@@H](O)[C@H](O)[C@H]2O)[C@H](O)[C@H]1O[C@H]1O[C@H](CO)[C@@H](O)[C@H](N)[C@H]1O")
9.765
>>> observed_value("CC[C@H]1OC(=O)[C@H](C)[C@@H](O[C@H]2C[C@@](C)(OC)[C@@H](O)[C@H](C)O2)[C@H](C)[C@@H](O[C@@H]2O[C@H](C)C[C@H](N(C)C)[C@H]2O)[C@](C)(O)C[C@@H](C)/C(=N\\OCOCCOC)[C@H](C)[C@@H](O)[C@]1(C)O")
625

Fill in Minimum inhibitory concentration (MIC) for each of the 4 compounds listed.
1. CN(C)[C@@H]1C(O)=C(C(N)=O)C(=O)[C@@]2(O)C(O)=C3C(=O)c4c(O)cccc4[C@@](C)(O)[C@H]3C[C@@H]12
2. CNC1CCCN(c2c(F)cc3c(=O)c(C(=O)O)cn(C4CC4)c3c2OC)C1 (stereo not shown)
3. CC(C)(O/N=C(\C(=O)N[C@@H]1C(=O)N2C(C(=O)[O-])=C(C[n+]3ccccc3)CS[C@H]12)c1csc(N)n1)C(=O)O
4. CC1(C)S[C@@H]2[C@H](NC(=O)[C@H](N)c3ccccc3)C(=O)N2[C@H]1C(=O)O

1: 390.625; 2: 250; 3: 7.81; 4: 25000
